target: T1, hCMV gH, gL, UL128, UL130 and UL131A co-expressed in HEK293T cells (human cytomegalovirus, UniProt P12824 24-743; P16832 31-278; P16837 1-171; P16772 1-214); experiment: cell cross-competition, 20x excess; competitor 2C12-biotin
T1 construct: whole, on cells; also called gH + gL + UL128 + UL130 + UL131A; gH/gL/UL128-130 complex
quantity-name: Inhibition of binding (%)

INSERT INTO assay_data (binder, quantity_name, result_unit, recorded_measurement) VALUES
  ('4I22 (antibody, V domains shown, human IgG mAb; also called 4I22-biotin) VH: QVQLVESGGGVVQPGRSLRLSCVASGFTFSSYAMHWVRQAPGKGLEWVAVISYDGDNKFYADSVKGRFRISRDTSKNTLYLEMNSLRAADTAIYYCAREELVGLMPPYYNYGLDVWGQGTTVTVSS VL: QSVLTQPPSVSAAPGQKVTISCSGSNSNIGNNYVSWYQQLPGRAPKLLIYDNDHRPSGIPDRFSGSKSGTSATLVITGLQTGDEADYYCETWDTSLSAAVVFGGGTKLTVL', 'Inhibition of binding (%)', '%', 0),
  ('8J16 (antibody, V domains shown, human IgG mAb; also called 8J16-biotin) VH: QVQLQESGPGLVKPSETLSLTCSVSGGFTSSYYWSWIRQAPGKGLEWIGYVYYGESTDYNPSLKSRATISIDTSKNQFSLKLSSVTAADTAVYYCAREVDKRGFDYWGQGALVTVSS VL: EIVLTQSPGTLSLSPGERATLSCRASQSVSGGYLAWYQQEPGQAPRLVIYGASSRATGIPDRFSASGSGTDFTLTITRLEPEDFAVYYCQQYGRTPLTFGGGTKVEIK', 'Inhibition of binding (%)', '%', 100);
